# EXPERIMENT_NOTES: Plasma Stability Assay (Example A2), human plasma
# Format: in vitro ADME
# CONDITION_DETAILS: 37° C., prodrug remaining, 30 min
MEASURED_METRIC: Prodrug (%)

{"columns": ["SMILES_STR", "MEASURED_METRIC", "MEASUREMENT_UNITS", "VALUE_RELATION_SIGN", "ASSAY_RESULT"],
 "data": [
  ["COc1ccc([C@@]23CCC(OP(=O)(O)O)=C[C@@H]2N(C)CC3)cc1OC", "Prodrug (%)", "%", "=", 65.1],
  ["COc1ccc([C@@]23CCC(OP(=O)(OC(C)C)OC(C)C)=C[C@@H]2N(C)CC3)cc1OC", "Prodrug (%)", "%", ">", 99],
  ["COc1ccc([C@@]23CCC(OC(=O)N(C)C)=C[C@@H]2N(C)CC3)cc1OC", "Prodrug (%)", "%", "=", 98.7],
  ["COc1ccc([C@@]23CCC(OP4(=O)OCC(C)(C)CO4)=C[C@@H]2N(C)CC3)cc1OC", "Prodrug (%)", "%", "=", 64.5],
  ["COc1ccc([C@@]23CCC(OP(=O)(Oc4ccccc4)Oc4ccccc4)=C[C@@H]2N(C)CC3)cc1OC", "Prodrug (%)", "%", "=", 98.5],
  ["CCN(C)C(=O)OC1=C[C@@H]2N(C)CC[C@]2(c2ccc(OC)c(OC)c2)CC1", "Prodrug (%)", "%", "=", 99.9],
  ["COc1ccc([C@@]23CCC(OC(=O)N4CCN(C)CC4)=C[C@@H]2N(C)CC3)cc1OC", "Prodrug (%)", "%", "=", 98.9]
]}

----------
# EXPERIMENT_NOTES: Plasma Stability Assay (Example A2), mouse plasma
# Assay type: in vitro ADME
# CONDITION_DETAILS: Mouse Plasma, 37° C., prodrug remaining; 120 min
MEASURED_METRIC: Prodrug (%)

{"columns": ["SMILES_STR", "MEASURED_METRIC", "VALUE_RELATION_SIGN", "ASSAY_RESULT"],
 "data": [
  ["CCN(C)C(=O)OC1=C[C@@H]2N(C)CC[C@]2(c2ccc(OC)c(OC)c2)CC1", "Prodrug (%)", ">", 99],
  ["COc1ccc([C@@]23CCC(OP(=O)(OC(C)C)OC(C)C)=C[C@@H]2N(C)CC3)cc1OC", "Prodrug (%)", "=", 43.1],
  ["COc1ccc([C@@]23CCC(OC(=O)N(C)C)=C[C@@H]2N(C)CC3)cc1OC", "Prodrug (%)", "=", 92.6],
  ["COc1ccc([C@@]23CCC(OC(=O)N4CCN(C)CC4)=C[C@@H]2N(C)CC3)cc1OC", "Prodrug (%)", ">", 99]
]}

----------
Prodrug (%) for assorted molecules
# EXPERIMENT_NOTES: Plasma Stability Assay (Example A2), human plasma
# Assay type: in vitro ADME
# CONDITION_DETAILS: 37° C., prodrug remaining, 120 min
MEASURED_METRIC: Prodrug (%)

{"columns": ["SMILES_STR", "ASSAY_RESULT"],
 "data": [
  ["COc1ccc([C@@]23CCC(OC(=O)N(C)C)=C[C@@H]2N(C)CC3)cc1OC", ">99%"],
  ["COc1ccc([C@@]23CCC(OP(=O)(OC(C)C)OC(C)C)=C[C@@H]2N(C)CC3)cc1OC", ">99%"],
  ["CCN(C)C(=O)OC1=C[C@@H]2N(C)CC[C@]2(c2ccc(OC)c(OC)c2)CC1", ">99%"],
  ["COc1ccc([C@@]23CCC(OP(=O)(Oc4ccccc4)Oc4ccccc4)=C[C@@H]2N(C)CC3)cc1OC", "98.2%"]
]}
